Where do the numbers come from? From patent US10405547B2.

# Tested on: galium (catchweed bedstraw, Galium aparine)
# Assay Details: Test A postemergence, galium
# Type: in vivo
# Assay Setup: 500 g ai/ha, visual injury, 0 to 100 scale (0 no effect, 100 complete control), approximately 10 days
Each entry below carries its recorded Plant response rating, Galium.
Please give the numeric answer without any surrounding text.

O=C1NCC(c2cccc(Oc3ncc(Cl)cn3)c2)C1C(=O)Nc1ccccc1F (centres unmarked) [Compound 55] = 30

Q. Provide the documented Plant response rating, Galium with galium (catchweed bedstraw, Galium aparine) as the system for O=C1NCC(c2cccc(OC(F)(F)C(F)OC(F)(F)F)c2)C1C(=O)Nc1ccccc1F (centres unmarked) [Compound 40]
A. 40

Q. Field: Plant response rating, Galium (galium (catchweed bedstraw, Galium aparine)). Entry: O=C1NCC(c2cccc(OCC3CC3)c2)C1C(=O)Nc1ccccc1F (centres unmarked) [Compound 11]
A. 30

Q. Please state recorded Plant response rating, Galium (tested on galium (catchweed bedstraw, Galium aparine)) of O=C1NCC(c2cccc(Oc3ccc(C(F)(F)F)cn3)c2)C1C(=O)Nc1cccc(F)c1F (single isomer, unassigned) [Compound 47]
A. 70

Q. Test system galium (catchweed bedstraw, Galium aparine); read-out Plant response rating, Galium; what value for O=C1NCC(c2cccc(OCC3OCCO3)c2)C1C(=O)Nc1ccccc1Cl (centres unmarked) [Compound 6] ?
A. 0

Q. Query Plant response rating, Galium on galium (catchweed bedstraw, Galium aparine) for O=C1NCC(c2cccc(COc3ccccc3)c2)C1C(=O)Nc1ccc(F)c(F)c1F (centres unmarked) [Compound 17]
A. 30

Q. Lookup: Plant response rating, Galium / galium (catchweed bedstraw, Galium aparine) / O=C1NCC(c2cccc(Cn3cccn3)c2)C1C(=O)Nc1ccccc1F (centres unmarked) [Compound 27]
A. 0

Q. Form field - read-out: Plant response rating, Galium; system: galium (catchweed bedstraw, Galium aparine); submitted item: O=C1NCC(c2cccc(OCc3ccco3)c2)C1C(=O)Nc1ccccc1F (centres unmarked) [Compound 10]
A. 0

---

Parameter Plant response rating, Foxtail, Giant: see the listing below.
# Test system: foxtail, giant (Setaria faberii)
# Assay Details: Test A postemergence, giant foxtail
# Format: in vivo
# Assay Setup: 31 g ai/ha, 0 to 100 scale (0 no effect, 100 complete control)
Lab note: record just the number, no unit beside it.

CN1CC(c2cccc(Oc3ccc(F)cn3)c2)C(C(=O)Nc2cccc(C#N)c2F)C1=O (single isomer, unassigned) = 30
CN1CC(c2cccc(Oc3ccc(F)cn3)c2)C(C(=O)Nc2cccc(F)c2C#N)C1=O (single isomer, unassigned) = 30
CN1C[C@H](c2cccc(Oc3ccc(F)cn3)c2)[C@@H](C(=O)Nc2ccc(F)c(F)c2F)C1=O = 70
O=C1NCC(c2cccc(CN3CCOCC3)c2)C1C(=O)Nc1cccc(F)c1F (single isomer, unassigned) = 0

Q. I am curious: what Plant response rating, Foxtail, Giant value has been reported for O=C1NCC(c2cccc(Oc3ncc(F)cc3F)c2)C1C(=O)Nc1cccc(F)c1F (single isomer, unassigned) ?
A. 20

---

# System: corn (Zea mays)
# Assay Details: Test A postemergence, corn
# Assay type: in vivo
# Assay Setup: 500 g ai/ha, visual injury, 0 to 100 scale (0 no effect, 100 complete control), approximately 10 days
In this section, each of the compounds is paired with its reported Plant response rating, Corn.
Enter a number only.

Q. What value of Plant response rating, Corn has been recorded for this entry: O=C1NCC(c2cccc(Oc3ncc(F)cn3)c2)C1C(=O)Nc1cccc(F)c1F (single isomer, unassigned)
A. 90

Q. Entry under review: O=C1NCC(c2cccc(OCC3CC3)c2)C1C(=O)Nc1cccc(F)c1F (stereo not drawn) . Reported Plant response rating, Corn?
A. 60

Q. Query (compound): O=C1NCC(c2cccc(COc3ccccc3)c2)C1C(=O)Nc1ccccc1F (stereo not drawn) ; field requested: Plant response rating, Corn
A. 0

Q. Quick one: Plant response rating, Corn of O=C1NCC(c2ccccc2Cn2ccc(C(F)(F)F)n2)C1C(=O)Nc1ccccc1F (stereo not drawn) ?
A. 0

Q. Requested read-out: Plant response rating, Corn. Entry: O=C1NCC(c2cccc(OCc3ccccc3)c2)C1C(=O)Nc1cccc(F)c1F (stereo not drawn)
A. 0
